Experiment: Measurement of LogP values by HPLC on reversed phase columns (EEC directive 79/831 Annex V.A8)
Type: physicochemical
Marks after values point to notes of the source that are not given here.
VALUE KIND: LogP

COMPOUND	VALUE KIND	TEST RESULT
Nc1cc(C(=O)NCc2ccccc2)sn1 [I-008]	LogP	1.32[a]

Request: Which LogP is reported for this compound? Nc1nsc(C(=O)NCc2c(F)cccc2Cl)c1Cl [I-132]
Response: 2.06[a]

Request: Another compound: Nc1nsc(C(=O)NCC2(Br)CCCCC2)c1F [I-1358]
Response: 2.56[a]

Request: Also check CCc1ccccc1CN(C(=O)c1snc(NCc2ccc(OC)cc2)c1Cl)C1CC1 [I-890]
Response: 4.74[a]

Request: Also, Nc1cc(C(=O)Nc2ccccc2)sn1 [I-855] please.
Response: 1.41[a]

Request: Record: COc1ccc(CNc2nsc(C(=O)NC(C)c3ccccc3F)c2Cl)cc1 (centres unmarked) [I-1212]
Response: 3.79[a]

Request: What do you get for Cc1c(CNC(=O)c2snc(N)c2Cl)ccc(F)c1F [I-163] ?
Response: 2.23[a]

Request: Another compound to look at: O=CNc1cc(C(=O)NCc2ccc(F)cc2F)sn1 [I-430]
Response: 1.79[a]

Request: Would you mind doing CCC(c1ccccc1)N(C(=O)c1snc(NCc2ccc(OC)cc2)c1Cl)C1CC1 (centres unmarked) [I-875] as well?
Response: 4.85[a]

Request: Another compound: COc1ccc(CNc2nsc(C(=O)NC3CC(C)CC(C)(C)C3)c2Cl)cc1 (centres unmarked) [I-1206]
Response: 5.00[a]

Request: Moving on to CCCC(c1ccccc1)N(C(=O)c1snc(N)c1Cl)C1CC1 (centres unmarked) [I-908]
Response: 3.48[a]
